# assay.target: Recombinant Human Poly(ADP-Ribose) Polymerase (PARP), PARP-1 (Homo sapiens (Human), UniProt P09874)
# Sequence (P09874 whole entry): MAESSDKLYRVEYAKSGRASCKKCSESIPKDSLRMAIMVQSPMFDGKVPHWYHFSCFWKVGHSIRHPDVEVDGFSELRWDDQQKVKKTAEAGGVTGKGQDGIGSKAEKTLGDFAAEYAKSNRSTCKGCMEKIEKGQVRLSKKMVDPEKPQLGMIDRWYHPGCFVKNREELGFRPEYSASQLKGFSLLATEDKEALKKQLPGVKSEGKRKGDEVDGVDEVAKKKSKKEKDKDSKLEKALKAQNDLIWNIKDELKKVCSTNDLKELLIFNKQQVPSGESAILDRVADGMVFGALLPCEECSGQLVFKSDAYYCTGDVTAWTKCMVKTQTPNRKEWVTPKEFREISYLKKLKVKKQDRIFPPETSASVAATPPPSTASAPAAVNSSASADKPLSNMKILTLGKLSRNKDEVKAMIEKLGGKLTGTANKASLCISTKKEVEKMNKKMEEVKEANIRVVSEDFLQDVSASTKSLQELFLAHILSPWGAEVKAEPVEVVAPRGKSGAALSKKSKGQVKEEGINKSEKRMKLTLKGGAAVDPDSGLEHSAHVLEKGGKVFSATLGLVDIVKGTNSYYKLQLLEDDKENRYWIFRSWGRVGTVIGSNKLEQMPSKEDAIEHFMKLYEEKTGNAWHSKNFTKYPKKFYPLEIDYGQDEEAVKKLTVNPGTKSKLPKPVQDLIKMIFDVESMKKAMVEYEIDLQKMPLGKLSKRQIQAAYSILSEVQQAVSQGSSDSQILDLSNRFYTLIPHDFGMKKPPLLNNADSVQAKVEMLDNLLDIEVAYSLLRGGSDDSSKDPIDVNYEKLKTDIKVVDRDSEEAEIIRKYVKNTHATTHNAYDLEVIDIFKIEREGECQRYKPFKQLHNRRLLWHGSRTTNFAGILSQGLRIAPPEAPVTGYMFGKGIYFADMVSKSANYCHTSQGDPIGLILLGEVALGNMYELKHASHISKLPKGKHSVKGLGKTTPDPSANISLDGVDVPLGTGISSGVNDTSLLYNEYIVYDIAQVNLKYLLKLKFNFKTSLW
# cond: read-out: PARP-1 (Ki); Table 1; text calls the values EC50s
pKi: −log10 of the molar value.
reported.metric: pKi

Worked examples follow.
compound: CC(Cc1n[nH]c(=O)c2c1CCCC2)c1ccc(F)c(-c2cccc(C(=O)N3CCOCC3)c2)c1 (centres unmarked)
pKi: 6.33
//
compound: CCN(C(C)=O)C1CCN(C(=O)c2cc(Cc3n[nH]c(=O)c4c3CCCC4)ccc2F)C1 (centres unmarked)
pKi: 8.40
//
compound: O=C(c1ccc2nc[nH]c2c1)N1CCCN(C(=O)c2cc(Cc3n[nH]c(=O)c4c3NCCC4)ccc2F)CC1
pKi: 8.72
//
compound: CNC(=O)c1ncccc1Cc1n[nH]c(=O)c2c1CCCC2
pKi: 5.90
//
compound: O=C(NCCN1CCCCC1)c1cc(Cc2n[nH]c(=O)c3c2NCCC3)ccc1F
pKi: 7.82
//
compound: O=C(NCCN1CCCC1)c1cccc(Cc2n[nH]c(=O)c3c2CCCC3)c1
pKi: 7.89
//
compound: O=C(c1cc(Cc2n[nH]c(=O)c3c2NCCC3)ccc1F)N1CCN(c2cncnc2)CC1
pKi: 8.60
//
compound: O=C(NC1CCN(C(=O)c2ccc3[nH]cnc3c2)CC1)c1cc(Cc2n[nH]c(=O)c3c2NCCC3)ccc1F
pKi: 8.74
//
compound: Cc1cc(C(=O)Nc2cccc(Cc3n[nH]c(=O)c4c3CCCC4)c2)c(C)o1
pKi: 6.75
//
compound: O=C(Nc1cc(Cc2n[nH]c(=O)c3c2CCCC3)ccc1F)NC1CCCC1
pKi: 6.69

a: CCCCN(Cc1ccccc1)C(=O)c1cccc(Cc2n[nH]c(=O)c3c2CCCC3)c1
b: CC(=O)Nc1ccc(C(=O)Nc2cccc(Cc3n[nH]c(=O)c4c3CCCC4)c2)cc1
c: Cc1ccc(F)cc1C(=O)Nc1cccc(Cc2n[nH]c(=O)c3c2CCCC3)c1
d: O=C(CCOc1ccccc1)Nc1cc(Cc2n[nH]c(=O)c3c2NCCC3)ccc1F
e: O=C(c1cc(Cc2n[nH]c(=O)c3c2CCCC3)ccc1F)N1CCN(c2ccncc2)CC1
# sort list by recorded pKi, greatest to least Reply format: the labels, ordered as requested.
e, d, b, a, c
(e: 8.96, d: 8.70, b: 7.24, a: 6.98, c: 6.62)

a: CCc1ccc(NC(=O)c2cccc(Cc3n[nH]c(=O)c4c3CCCC4)c2)cc1
b: O=C1NC(Cc2ccccc2)C(=O)N1c1cc(Cc2n[nH]c(=O)c3c2NCCC3)ccc1F (centres unmarked)
c: C[C@@H]1CN(C(=O)c2ccccc2)CCN1C(=O)c1cc(Cc2n[nH]c(=O)c3c2CCCC3)ccc1F
d: COc1ccc(CCNC(=O)c2cccc(Cc3n[nH]c(=O)c4c3CCCC4)c2)cc1OC
Order the records by pKi, with each subsequent value no larger than the one before. Answer by listing the labels in the order asked for.
c, d, b, a

P: CN(C)CCCN1CCCN(C(=O)c2cc(Cc3n[nH]c(=O)c4c3NCCC4)ccc2F)C1
Q: CC(Cc1n[nH]c(=O)c2c1CCCC2)c1ccc(F)c(-c2cccc(C(=O)N3CCCC3)c2)c1 (centres unmarked)
R: COc1ccc(S(=O)(=O)N2CCN(C(=O)c3cc(Cc4n[nH]c(=O)c5c4NCCC5)ccc3F)CC2)cc1
Sort low-to-high on pKi, please. Please list each label once, in the requested order.
Q, P, R
(Q: 6.03, P: 7.82, R: 9.15)
